target: T1, recombinant human C5 (human, UniProt P01031 20-1676); assay: SPR (BIACORE T200), antibody captured by ProA/G, recombinant human C5 injected, 37 degrees C, pH7.4; pH 7.4
T1 construct: The same entry is used here for C5 in normal human serum in the functional rows; also called hC5; rhC5
assay endpoint: kon (M⁻¹ s⁻¹)
Lab book: enter the figure in M⁻¹ s⁻¹, no units written.

Here are 5 binders together with their reported answers.
CFA0672 (antibody, V domains shown) VH: QSVEESGGRLVTPGTPLTLTCTASGFSLSGNAINWVRQAPGKGLEWIGCIYTGSDTTYYATWAKGRFTISKTSTTVDLKIASPTTEDTATYFCARGSGLWGPGTLVTVSS VL: DVVMTQTPASVSAPVGGTVTIKCQASQNIYSLLAWYQQKPGQPPKLLIYHTSDLASGVPSRFRGSGSGTEFTLTISDLECADAATYYCQCTAYGSSDVGGTFGGGTTVVVE	523000
CFA0366 (antibody, V domains shown) VH: QSLEESGGDLVKPGASLSLTCTAAGLDFSSSYYMCWVRQAPGKGLEWIACIYAGSSGIIYYANWAKGRFTISRPSSTTVTLQMTSLTAADTATYFCATYPTYGDGGHAFNLWGPGTLVTVSS VL: AQVLTQTPSSVSAAVGGTVTINCQSSQSVYSSDYLSWYQQKPGQPPKLLIYEASKLASGVPPRFSGSGSGTQFTLTISGVQCDDAATYYCQGTYYSSGWYFAFGGGTEVVVK	1.04e+06
CFA0307 (antibody, V domains shown) VH: QSLEESGGGLVKPGASLTLTCKASGIDFSNFYYICWVRQAPGKGLDLIACIYTVSGYTYYASWAKGRLTISKTSSTTVTLQMTSLTAADTATYFCARDLHAGITNLWGPGTLVTVSS VL: AIEMTQTPFSVSAAVGGTVTIKCQASQNIYSNLAWYQQKPGQRPKLLIYGASNLESGVPSRFKGSGSGTEYTLTISDLECADAATYYCLQGYSYSNVDDAFGGGTEVVVK	324000
CFA0341 (antibody, V domains shown) VH: QSVEESGGRLVTPGTPLTLTCTVSGIDLSSYTMGWVRQAPGKGLECIGYIHSFGSTYYASWAKGRFTISKTSTTVDLEITSPTTEDTATYFCARDVGGSSGWDLWGQGTLVTVSS VL: DVVMTQTPSSVSAAVGGTVTIKCQASENIYSNLAWYQQKPGQPPKRLIYDASDLASGVPSRFSGSGYGTQFTLTISGVQCEDAATYYCQANYDSTSSSFGNVFGGGTEVVVK	628000
CFA0599 (antibody, V domains shown) VH: QSVEESGGRLVTPGTPLTLTCTVSGLSLSDNTMTWVRQAPGKGLEWIGIISFGGDAYYASWAKGRFPISKTSTTVDLRITSPTTEDTATYFCARVGAGNIFWYFDLWGPGTLVTVSS VL: AYDMTQTPASVEVSVGGTVTIKCQASESIYSALAWYQQKPGQPPKLLIYSASTLASGVPSRFKGSGSGTEYTLTISDLECADAATYYCQQYYSSTNVHNSFGGGTTVVVE	474000

kon for CFA0305 (antibody, V domains shown) VH: QSLEESGGDLVKPGASLAVTCTASGFSSSSSYYMCWVRQAPGKGLEWIGCIYTGSGATYYASWAKGRFTISKTSSTTVTLQMTSLTVADTATYFCASDGGYVTPTHAMYLWGPGTLVTVSS VL: DVVMTQTPASVSAAVGGTVTIKCQASQNIGSDLAWYQQKPGQPPRLLIYGASKLASGVSSRFSGSGSGKEFTLTISDLECADAVTYYCQCTFVGSSYGNAFGGGTEVVVK is 38200

kon for CFA0330 (antibody, V domains shown) VH: QSLEESGGDLVEPGASLTLTCTASGFSWNSGYDMCWVRQAPGKGLEWIACIYTGSSANTAYANWAKGRFTISKTSSTTVTLQMTGLTAADTATYFCARHDDYFFDLWGPGTLVTVSS VL: DVVMTQTPASVSESVGGTVTINCQASQSIGNNLAWYQQKPGQPPKLLIYDASNLASGVPSRFKGSRSGTEPTLTNTLTISGVQCADVATYYCQSGWYGNSYVAAFGGGTEVVVKR is 1.66e+06

kon for CFA0538 (antibody, V domains shown) VH: QSVEESGGRLVTPGTPLTLTCTASGFSLSSYYMNWVRQAPGKGLEWIGMIYGSGATYYASWAKGRFTISKTSSTTVDLKMTSLTTEDTATYFCARQIYSGDNNDNFWGPGTLVTVSS VL: AYDMTQTPASVEVAVGGTVTINCQASESISNWLAWYQQKPGQRPKLLIYRASTLASGVSSRFKGSGSGTQFTLTISGVECDDAATYYCQQDYSSSNVDNTFGGGTTVVVE is 473000

kon for CFA0675 (antibody, V domains shown) VH: QSVEESGGRLVTPGTPLTLTCTVSGFSLSTYAMGWVRQAPGKGLEWIGTIDTGDNSFYANWAKGRFTISRTSTTVDLKITSPTAEDTATYFCARNDGSVYNLFNLWGPGTLVTVSS VL: DVVMTQTPASVSAAVGGTVTIKCQASENIYSALSWYQQKPGLRPRLLIYYASTLASGVPSRFKGSRSGTEFTLTISDLECADAASYYCQQYYDINSVDNTFGGGTKVVVE is 383000

kon for CFA0501 (antibody, V domains shown) VH: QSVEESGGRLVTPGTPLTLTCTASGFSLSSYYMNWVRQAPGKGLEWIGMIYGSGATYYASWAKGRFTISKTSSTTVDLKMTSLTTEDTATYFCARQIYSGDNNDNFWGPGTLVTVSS VL: AYDMTQTPASVEVAVGGTVTINCQASESISNWLAWYQQKPGQRPKLLIYRASTLASGVSSRFKGSGSGTQFTLTISGVECDDAATYYCQQDYSSSNVDNTFGGGTKVVVE is 474000

kon for CFA0666 (antibody, V domains shown) VH: QSVEESGGRLVTPGTPLTLTCTVSGFSLSTYAMGWVRQAPGKGLEWIGTIDTGDNSFYANWAKGRFTISKTSTTVDLKITSPTAEDTATYFCARNDGSVYNLFNLWGPGTLVTVSS VL: DVVMTQTPASVSAAVGGTVTIKCQASENIYSALSWYQQKPGLRPRLLIYYASTLASGVPSRFKGSRSGTEFTLTISDLECADAATYYCQQYYDINSVDNTFGGGTKVVVE is 365000
